These data points were gathered from patent US6120997A.

molecular target: AS-wt; assay: SPR binding of aminoglycosides to decoding region A-site model AS-wt; settings: 150 mM NaCl, 10 mM HEPES (pH 7.4), 3.4 mM EDTA; read-out: dissociation constant, AS-wt
measured_metric: Kd (µM)
Report the figure in µM without appending any unit label.

Need Kd, item NC[C@H]1O[C@H](O[C@H]2[C@H](O)[C@@H](O)[C@H](N)C[C@@H]2N)[C@H](N)[C@@H](O)[C@@H]1O [Neamine]
7.8

----------
test system: AS-wt; experiment: SPR binding of aminoglycosides to decoding region A-site model AS-wt; parameters: species or system E. coli; conditions: Example 5, HBS-buffer
measured_metric: specificity for AS-wt over negative controls (in words)

NC[C@H]1O[C@H](O[C@H]2[C@H](O[C@@H]3O[C@H](CO)[C@@H](O)[C@H]3O)[C@@H](O)[C@H](N)C[C@@H]2N)[C@H](N)[C@@H](O)[C@@H]1O ... low
CN[C@H]1C[C@@H](N)[C@H](O)[C@@H](O[C@@H]2O[C@H](CO)[C@H](O)[C@@H]3OC4(O[C@H]23)O[C@H]([C@@H](N)CO)[C@H](O)[C@H](O)[C@H]4O)[C@@H]1O (some centres unmarked) ... none
